From: the supplement of paper PMC12764529

Test name: folding stability dG unfold from trypsin proteolysis; higher = more stable
Param threshold (2 kcal/mol) applies to folding stability dG unfold; output t when value >= threshold, f when value < threshold.

> print(dat)
                                   residues  assigned.class
1  SAGGKTIEIEVKVPPGMTEEEVAKKLAEELAKELEKKTGKEIKIEIEKVEKLPNGERKVRIKIEVKPSAGGS [r8_156_TrROS_Hall]               f
2  KMEIKIEVEKVKDEETGEEYIEVKIVVKKENVEEALEKVKKILEEEFNYEIVDVKVEKKDDYVVITVKIRLS [r1_337_TrROS_Hall]               t
3  SAGGPVIEVEKEYIPETGLVKVKVRDPSSDRELEIIAPSDLVDKIEKALENAPGTNSEAAVREALRDSAGGS [r8_484_TrMRF]               f
4  SSMSIEIKEVEEDPVGSEAKPRVVREKVTLEGTEVELTVTVTEAPSGETTVTTTLTFPGSGKTFSFTFDTSA [r9_241_JUSTAS]               f
5  SAGGSAGGSAGTAEEIAKALEEAGFKVEKLPDGTLKVTVRNPETEETVEITLTLEEIEKLSAGGSAGGSAGG [r11_994_TrROS_Hall]               t

// query For this sequence, is measured folding stability dG unfold 2 kcal/mol or higher? SAGGSAGGSAMTPQVIKVTLYKPATGDVRTVVVLDPVPNTSLDEVAAALPSDYVVAKVEVGSAGGSAGGSAG [r3_80_TrMRF]
// result f

// query For this sequence, is measured folding stability dG unfold 2 kcal/mol or higher? SAGGMKLEIYLRFKTEEEAKKAVEELIRKLLEELGLEVEVEVVYDEETKEVYVKVTVTFPELPEEELSAGGS [r8_17_TrROS_Hall]
// result t

* * *

Test name: folding stability dG unfold from trypsin proteolysis; higher = more stable
Provide the recorded folding stability dG unfold for the entries that follow.

These solved cases illustrate the format of a correct answer.
> print(dat)
                                   residues         result
1  SAGGSAGGSAGAAPDGETVRITAVFVNPETQEVFVVEATINPDGELTMEVKEVFKLPEGLSAGGSAGGSAGG [r11_226_TrROS_Hall]  1.42 kcal/mol
2  SAGGRRKIEFEVWIPMDKDGEITPNEIIEEAREIAEALPNFDNVEIEEISIQHHPDGWTRYNITIEVPSAGG [r13_462_TrROS]  2.16 kcal/mol
3  SAGGSAKKEVYKINIKVYNKNGKKVKEIKIELPEELKGKTIEEIAKELAKKLNIEKIEVKIEPVKPSAGGSA [r15_333_TrROS_Hall]  1.61 kcal/mol
4  SAGGSAGGSLTVSFPGITLTLETVPGTGKIIATVTFPGGEVRTISSDVPLSELPPVVREALELLSAGGSAGG [r6_749_JUSTAS]  2.72 kcal/mol
5  SAGGSAGGSAIADEFAEKNPNFQVEVERHTFEMTQYDPDGGWRQHRMFMISITIVPPGDPLSAGGSAGGSAG [r3_358_TrROS]  2.91 kcal/mol
6  SAGGSAGGSNGDKKPPVKWEWVMIEIEIPPDDIDEIAEEFPGFSVNYERDNGHYRVNIMIPVPYSAGGSAGG [r6_686_TrROS]  1.35 kcal/mol

For each entry beneath this line, provide reported folding stability dG unfold.
1. SAGGSAGGMKVTTEGNAAGTNTVTVSYPDGSSVTRTLAPDDVVEVPVGGEVVLTVTVTANPDLPSAGGSAGG [r6_583_JUSTAS]
2. SAGGSAGGSAGGSKDITITHEHNPNGWYRVKIRFPDNGKKIEIWVPAGRSVEEALDWLFSAGGSAGGSAGGS [r4_393_TrROS]
3. SAGGSAGGSMNVSPEELEALARERIEALLAENPDVPRDDVVLEFEGRSESPGKVITLTLRVRASAGGSAGGS [r12_707_JUSTAS]

// result
-0.0728 kcal/mol
3.06 kcal/mol
0.242 kcal/mol

For each entry beneath this line, provide reported folding stability dG unfold.
1. SAGGSDNKPFRIEPTGVDSVEANPDGMVEIEWRFRLPNGYVLTWRETINPKNGKPSIEPTLVPPGESAGGSA [r2_321_TrROS]
2. SAGGGRARLIELKEARFNPETGVLELTALVEFPEIGTLVVFRIRVPLEGEPRIEIEVEVYPIKPGEASAGGS [r16_207_TrMRF]
3. SAGGSAGGSAKPLKKLVLLLKVKGPFEEVEKILNEEFGVKKIVAFKDPETDEVYALIYLGDPSAGGSAGGSA [r18_275_TrMRF]
4. SAGGSAGGSAGGSSEPVVILVPVLPDAEEAVVDIGGHPALVKRFPDSPLAAITVPKELLSAGGSAGGSAGGS [r4_430_TrMRF]
5. SAGGSAGGSSSMVVIEKEFPDLTPEEVEKLAKEIEEKNPELGKVEVKFKPKKKPKPPLTPEAKKSAGGSAGG [r6_825_JUSTAS]
6. SAGGSALAEKAKELALEKGYDPVKVTYDPKTGTLTMTAKPPGGKEVKMTFTIDEDTITITTTPLTKSAGGSA [r15_561_JUSTAS]

// result
1. 0.816 kcal/mol
2. 3.17 kcal/mol
3. 2.23 kcal/mol
4. 0.0985 kcal/mol
5. -0.672 kcal/mol
6. 0.996 kcal/mol

For each entry beneath this line, provide reported folding stability dG unfold.
1. SAGGSAMKITITVEKKEDGTYRVTIEIDGKKIEIEMSVEDLKKKLEELAKELFPDKPIKVEVKPVPSAGGSA [r15_925_TrROS_Hall]
2. SAGGSAGGSAGGSMITIEVTTPTEKHTIEVPEDEVPEEELIERAKKLFPDVEKITILKESAGGSAGGSAGGS [r4_235_JUSTAS]
3. SANGEMTMMFEFEIFFPGLGYRGKIYVMMRIEPTPNQIRIDLMIMIEIEPIPPPPPKVPPEQNPEDADDSAG [r14_435_TrROS]
4. SAGGSAGGSAGGKMKPVTIYIKNKDGSTAKLKVINGKVEITFPNGEKKTISAKDLKIYKSAGGSAGGSAGGS [r10_1176_TrROS_Hall]
5. SAGGSAETIETVSSTFPVFSEDDKPVAVVKTYIFKFEDGELVLTEVFTPDGKPVAVKVASLDEFLNSAGGSA [r15_755_TrMRF]
6. SAGGDKLEDLPLEDVEVLRVEVIPLPDGGVLVVFEFKVSDEEGPERLVRVVVLVENDEARVFVEPLGSAGGS [r16_469_TrMRF]
7. SAGGSAGGSFKAPPGEKYVLKLRSPENGQEFMVEFTPDNIKISNPNDEKMPFPPDDITDVKDVSAGGSAGGS [r20_35_TrROS]
8. FKFKITELSFNPEWGYIHFNVKVEGPDGQPQTFPIMIRIRIPPPPPPPPPPMRADPDGKVRNPDDGKEHDAS [r1_270_TrROS]

// result
2.87 kcal/mol
0.65 kcal/mol
3.82 kcal/mol
0.631 kcal/mol
1.27 kcal/mol
2.05 kcal/mol
-0.612 kcal/mol
3.3 kcal/mol

For each entry beneath this line, provide reported folding stability dG unfold.
1. SAGGSAGGSAGMKKVLIIGGPKEELAKELKEKSPDIEVEFLDPSEDLEEYKKKFDIVIIESAGGSAGGSAGG [r17_225_JUSTAS]
2. SAGGMKKVRLTLVFESEEEALEALRKALEEAGVEVKVVRVERLPDGRVVVTVEIEVSDEVLEALKAASAGGS [r8_357_TrROS_Hall]
3. SSPEEMAEKLAKELNFDKIEIKTEKLDLPSGPSEATVATAKLYNPATGKEYVVKILKFPDGSYEIVIEKKSA [r9_724_JUSTAS]
4. QRTVYIPIRGMPPDQMVDMIRMALRQAREKGHPNRTIRIWMPGPPEQRERARRYIKELADEPGLNVTIEGWS [r1_387_TrROS]

// result
1. -0.387 kcal/mol
2. 3.77 kcal/mol
3. 1.44 kcal/mol
4. 1.71 kcal/mol
